PROTOCOL_TEXT: clinical
COND: in vivo, iv, mean serum concentration
MEASUREMENT_LABEL: concentration at 11 h (ng/mL)
Lab book: enter the figure in ng/mL, no units written.

What concentration at 11 h value was documented for this compound, COC1(NC(=O)C(C(=O)O)c2ccc(O)cc2)C(=O)N2C(C(=O)O)=C(CSc3nnnn3C)COC21 (stereo not shown) ?
1200
